Molecular target: DPP-IV (Homo sapiens)
Construct: an extract of human colon carcinoma cell line Caco-2 is used as the DPP IV source; endogenous in cells; Nonidet-P40 solubilised extract
Sequence (P27487 whole entry): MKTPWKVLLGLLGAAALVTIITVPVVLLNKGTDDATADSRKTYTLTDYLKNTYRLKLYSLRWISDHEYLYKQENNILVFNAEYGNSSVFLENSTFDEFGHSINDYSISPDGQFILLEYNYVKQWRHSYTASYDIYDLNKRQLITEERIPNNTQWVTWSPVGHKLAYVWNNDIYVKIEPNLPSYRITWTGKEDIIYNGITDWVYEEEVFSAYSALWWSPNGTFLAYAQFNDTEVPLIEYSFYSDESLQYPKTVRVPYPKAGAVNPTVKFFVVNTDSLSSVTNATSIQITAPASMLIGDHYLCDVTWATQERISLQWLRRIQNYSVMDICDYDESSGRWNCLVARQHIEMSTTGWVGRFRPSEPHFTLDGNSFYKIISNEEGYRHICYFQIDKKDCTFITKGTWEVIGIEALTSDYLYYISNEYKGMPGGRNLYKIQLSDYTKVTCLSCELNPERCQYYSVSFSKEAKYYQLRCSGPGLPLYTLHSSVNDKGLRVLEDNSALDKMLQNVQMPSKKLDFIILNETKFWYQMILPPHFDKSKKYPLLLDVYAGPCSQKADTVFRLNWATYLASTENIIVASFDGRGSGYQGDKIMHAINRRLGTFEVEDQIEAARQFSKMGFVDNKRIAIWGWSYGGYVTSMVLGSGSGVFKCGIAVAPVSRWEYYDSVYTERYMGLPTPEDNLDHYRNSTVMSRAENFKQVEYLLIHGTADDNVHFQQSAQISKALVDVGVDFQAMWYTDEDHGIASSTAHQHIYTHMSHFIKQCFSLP
Assay: DPP-IV assay with Caco-2 cell extract as DPP IV source, AFC substrate, fluorescence
Conditions: extract of human colon carcinoma cell line Caco-2; substrate 100 μM; 60 minutes at ambient temperature; read-out: DPP IV inhibition IC50
READOUT KIND: pIC50
Conceptually, pIC50 converts a concentration in mol/L into minus its log10.

// below: answered compounds
# MOL, pIC50
data = [
    ("CC#CCn1c(N2CCC[C@@H](N)C2)nc2c(C)nn(Cc3nc4ccccc4c4ccccc34)c(=O)c21", 8.10),
    ("CC#CCn1c(N2CCC[C@@H](N)C2)nc2cnn(Cc3nc4ccccc4c(=O)[nH]3)c(=O)c21", 8.52),
    ("CC#CCn1c(N2CCC[C@@H](N)C2)nc2cnn(Cc3nc4c(ccc5ccccc54)o3)c(=O)c21", 8.15),
]

Q. Endpoint output: pIC50 of "CC#CCn1c(N2CCC[C@@H](N)C2)nc2cnn(Cc3nc4ccc5ccccc5c4o3)c(=O)c21" . Value?
A. 8.52
